The reported numbers originate from the supplement of paper PMC7877785.

- MEASUREMENT_NOTES: self-splicing fitness, log relative to wild type (ln ratio); higher = more splicing; Tetrahymena group I intron in knt gene, E. coli kanamycin selection, DiMSum; sequences stand for … in CUCUCU…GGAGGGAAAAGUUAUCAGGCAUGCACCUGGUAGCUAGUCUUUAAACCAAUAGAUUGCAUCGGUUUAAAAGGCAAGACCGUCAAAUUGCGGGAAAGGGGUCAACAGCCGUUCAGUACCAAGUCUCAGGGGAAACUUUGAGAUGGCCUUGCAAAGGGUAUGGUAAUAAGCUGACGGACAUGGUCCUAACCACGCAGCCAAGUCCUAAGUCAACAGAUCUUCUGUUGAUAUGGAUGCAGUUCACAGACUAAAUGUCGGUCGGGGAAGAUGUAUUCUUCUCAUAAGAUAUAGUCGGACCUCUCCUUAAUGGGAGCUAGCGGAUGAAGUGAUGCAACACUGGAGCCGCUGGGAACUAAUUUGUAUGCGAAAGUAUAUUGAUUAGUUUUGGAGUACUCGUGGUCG;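 further: selection with 25 µg/mL kanamycin versus none on LB agar overnight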
- STATED_CONDITIONS: 37 °C
# self-splicing fitness (ln) values compiled below
I'd appreciate a reply containing only the number, no unit.

UACGAGCAAUAUUACGUCUU: -3.41
GGAGAGCAAUAUUACGUCAA: -3.54
GUGCAGCAAUAUUACGUAAU: 0.129

Kindly review the next sequence as well.
Task: Give the reported value of self-splicing fitness (ln) for this record: UACGAGCAAUAUUACGCGCU
Output: -3.38

====

- MEASUREMENT_NOTES: self-splicing fitness, log relative to wild type (ln ratio); higher = more splicing; Tetrahymena group I intron in knt gene, E. coli kanamycin selection, DiMSum; sequences stand for … in CUCUCU…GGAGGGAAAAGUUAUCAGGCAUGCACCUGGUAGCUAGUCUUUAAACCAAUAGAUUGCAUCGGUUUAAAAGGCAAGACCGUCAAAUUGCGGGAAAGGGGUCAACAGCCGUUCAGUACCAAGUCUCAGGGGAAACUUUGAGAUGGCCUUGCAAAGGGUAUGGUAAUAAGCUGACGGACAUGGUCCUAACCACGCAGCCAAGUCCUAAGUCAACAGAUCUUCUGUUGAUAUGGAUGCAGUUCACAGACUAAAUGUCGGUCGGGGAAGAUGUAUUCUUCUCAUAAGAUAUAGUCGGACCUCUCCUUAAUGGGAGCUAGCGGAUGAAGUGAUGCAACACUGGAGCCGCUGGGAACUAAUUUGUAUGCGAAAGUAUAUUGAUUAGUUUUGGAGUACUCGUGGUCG
- STATED_CONDITIONS: 37 °C
Criterion: self-splicing fitness (ln) meeting or surpassing -2. Met: true (1). Not met: false (0).

CAAGAGCAAUAUUACGCAGA: false (0)

Task: Determine whether this sequence has self-splicing fitness (ln) no lower than -2: GUGAAGCAAUAUUACGGAGC
Output: true (1)

Task: Determine whether this sequence has self-splicing fitness (ln) no lower than -2: CUAGAGCAAUAUUACGUUUA
Output: true (1)

Task: Determine whether this sequence has self-splicing fitness (ln) no lower than -2: UAUUAGCAAUAUUACGCUAG
Output: true (1)

Task: Determine whether this sequence has self-splicing fitness (ln) no lower than -2: UGCAAGCAAUAUUACGCGGG
Output: false (0)

Task: Determine whether this sequence has self-splicing fitness (ln) no lower than -2: UAGCAGCAAUAUUACGGCUC
Output: true (1)

Task: Determine whether this sequence has self-splicing fitness (ln) no lower than -2: CAGCAGCAAUAUUACGACGC
Output: true (1)

Task: Determine whether this sequence has self-splicing fitness (ln) no lower than -2: GAAUAGCAAUAUUACGAGCA
Output: true (1)

Task: Determine whether this sequence has self-splicing fitness (ln) no lower than -2: UCUUAGCAAUAUUACGGAGA
Output: false (0)

Task: Determine whether this sequence has self-splicing fitness (ln) no lower than -2: UGUCAGCAAUAUUACGUUGG
Output: false (0)

Task: Determine whether this sequence has self-splicing fitness (ln) no lower than -2: ACUGAGCAAUAUUACGUGUC
Output: false (0)

Task: Determine whether this sequence has self-splicing fitness (ln) no lower than -2: CGGUAGCAAUAUUACGUAAG
Output: true (1)
